IL-2 production values, listed per item
Assayed system: mCD1d-Fc fusion protein (Mus musculus, UniProt P11609)
Construct: Ig (mouse immunoglobulin fusion partner); purchased BD Biosciences
Sequence (P11609 22-305 limits assumed): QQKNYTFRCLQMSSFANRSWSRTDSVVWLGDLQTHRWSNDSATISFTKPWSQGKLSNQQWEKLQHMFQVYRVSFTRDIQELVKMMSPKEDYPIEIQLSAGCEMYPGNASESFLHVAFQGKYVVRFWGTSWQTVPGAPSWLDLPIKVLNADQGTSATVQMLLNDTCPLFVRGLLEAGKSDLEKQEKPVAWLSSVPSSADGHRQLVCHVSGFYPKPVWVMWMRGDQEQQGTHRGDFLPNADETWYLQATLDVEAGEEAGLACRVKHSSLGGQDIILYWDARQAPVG
Sequence (P01887 21-119 partner): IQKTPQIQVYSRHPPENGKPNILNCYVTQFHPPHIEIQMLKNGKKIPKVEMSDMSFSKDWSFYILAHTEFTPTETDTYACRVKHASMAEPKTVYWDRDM
Procedure text: Antigen presenting cell (APC)-free assay for lipid binding to mCD1d-Fc; IL-2 release by 2E10 NKT hybridoma cells
Type: cell-based
Set-up: unit not given here
Condition set: ligand 100 nM; mean ± SEM; Fig. 3c, d
Quick one: just the number, no unit, thanks!

| Compound | Assayed system | Assay result |
| --- | --- | --- |
| CCCCCCCCCCCC/C=C\CCCCCCCCCCCC(=O)N[C@@H](CO[C@H]1O[C@H](CO)[C@H](O)[C@H](O)[C@H]1O)[C@H](O)[C@H](O)CCCCCCCCCCCCCC | mCD1d-Fc fusion protein (Mus musculus, UniProt P11609) | 1556 |
| CCCCCC/C=C/CCCCCCCCCCCC(=O)N[C@@H](CO[C@H]1O[C@H](CO)[C@H](O)[C@H](O)[C@H]1O)[C@H](O)[C@H](O)CCCCCCCCCCCCCC | mCD1d-Fc fusion protein (Mus musculus, UniProt P11609) | 334 |
| CCCCCC/C=C\CCCCCCCCCCCC(=O)N[C@@H](CO[C@H]1O[C@H](CO)[C@H](O)[C@H](O)[C@H]1O)[C@H](O)[C@H](O)CCCCCCCCCCCCCC | mCD1d-Fc fusion protein (Mus musculus, UniProt P11609) | 925 |
| CCCCCCCCCCCCCCCCCCCCCCCCCC(=O)N[C@@H](CO[C@H]1O[C@H](CO)[C@H](O)[C@H](O)[C@H]1O)[C@H](O)[C@H](O)CCCCCCCCCCCCCC [α-GalCer, α-galactosyl ceramide, reference compound] | mCD1d-Fc fusion protein (Mus musculus, UniProt P11609) | 274 |

(Q) Item "CCCCCCCCCCCC/C=C/CCCCCCCCCCCC(=O)N[C@@H](CO[C@H]1O[C@H](CO)[C@H](O)[C@H](O)[C@H]1O)[C@H](O)[C@H](O)CCCCCCCCCCCCCC" : provide IL-2 production
(A) 1626
